Measured values drawn from patent EP4471048A1 for this set.

# method-description: Peptide stability in simulated intestinal fluid (SIF)
# Type: in vitro ADME
# run-parameters: 10 µM, 37 °C, porcine pancreatin, pH 6.8, 4 h
observed-property: SIF (% remaining 4 h) (%)

CSCC[C@H](NC(=O)[C@@H]1CSCC(=O)CSC[C@H](NC(=O)[C@@H](N)CCC(=O)O)C(=O)N[C@@H](Cc2c[nH]c3ccccc23)C(=O)N[C@@H](CC(C)C)C(=O)N[C@H]2CSCC(=O)CSC[C@H](NC(=O)[C@H](CC(N)=O)NC(=O)[C@H](CCCNC(=N)N)NC(=O)[C@H](Cc3ccc(O)cc3)NC(=O)[C@H](Cc3ccc(O)cc3)NC2=O)C(=O)N[C@@H](CC(N)=O)C(=O)N1)C(N)=O (single isomer, unassigned) [I4 (isomer 3), H-EC(4a)WLC(5a)YYRNC(5a)NC(4a)M-[NH2], reference compound] : 0
CC[C@H](C)[C@@H]1NC(=O)[C@@H]2CCCCNC(=O)CC[C@@H](C(=O)N3CCNC3C(=O)N[C@@H](Cc3cccnc3)C(=O)NC)NC(=O)[C@](C)(CC(C)C)NC(=O)[C@H](Cc3ccc4ccccc4c3)NC(=O)[C@H](Cc3ccc(OCCN)cc3)NC(=O)[C@H](CCC(=O)N2)NC(=O)[C@H](CCC(N)=O)NC(=O)[C@H](Cc2c[nH]c3ccccc23)NC(=O)[C@H](C(C)C)NC1=O (stereo partly drawn) [Compound 72] : 110
CC(C)C[C@@H]1NC(=O)[C@H](Cc2c[nH]c3ccccc23)NC(=O)[C@H](Cc2c[nH]c3ccccc23)NC(=O)[C@@H]2CSCC(=O)CSC[C@H](NC(=O)[C@H](CO)NC(=O)[C@@H](NC(=O)[C@@H](N)CC(=O)O)CSCC(=O)CSC[C@@H](C(=O)N[C@@H](CCCNC(=N)N)C(N)=O)NC1=O)C(=O)N[C@@H](Cc1c[nH]c3ccccc13)C(=O)N[C@@H](CCC(N)=O)C(=O)N2 (single isomer, unassigned) [I3 (isomer 3), H-DC(1a)SC(2a)WQC(2a)WWLC(1a)R-[NH2], reference compound] : 0

###

Target sequence: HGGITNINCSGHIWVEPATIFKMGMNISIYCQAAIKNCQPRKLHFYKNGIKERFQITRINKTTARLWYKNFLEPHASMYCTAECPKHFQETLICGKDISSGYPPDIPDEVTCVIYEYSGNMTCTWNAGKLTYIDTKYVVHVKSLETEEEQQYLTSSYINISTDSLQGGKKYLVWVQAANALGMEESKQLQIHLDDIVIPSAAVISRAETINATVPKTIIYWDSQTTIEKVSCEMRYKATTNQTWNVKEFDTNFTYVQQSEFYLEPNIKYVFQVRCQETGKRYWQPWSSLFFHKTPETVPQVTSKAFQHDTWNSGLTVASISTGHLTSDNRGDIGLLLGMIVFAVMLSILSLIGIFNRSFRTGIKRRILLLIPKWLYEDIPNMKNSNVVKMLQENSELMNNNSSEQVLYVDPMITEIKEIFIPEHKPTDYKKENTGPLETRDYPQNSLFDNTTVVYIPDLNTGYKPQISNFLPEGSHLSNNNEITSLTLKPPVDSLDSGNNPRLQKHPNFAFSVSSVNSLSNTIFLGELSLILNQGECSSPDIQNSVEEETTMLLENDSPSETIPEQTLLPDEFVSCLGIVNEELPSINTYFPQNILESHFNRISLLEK
pKi: −log10 of the molar value. *1 amine or outer side, *2 acyl side, *3 side chain or, on linkers, in order; H or OH if unused. Where a SMILES comes first, the peptide text is derived from it. Bridges are numbered along the chain shown (N, C = ends). [ ]: non-standard residue; d: D form. 2Nal = N[C@@H](Cc1ccc2ccccc2c1)C(=O)O; AEF = NCCOc1ccc(C[C@H](N)C(=O)O)cc1; 3Pal = N[C@@H](Cc1cccnc1)C(=O)O; αMeL = CC(C)C[C@](C)(N)C(=O)O; CH2COCH2 = O=C(C[*:1])C[*:2]; 3Amb = NCc1cccc(C(=O)O)c1
A collection of compounds and their measured pKi
observed-property: pKi

CC(C)C[C@]1(C)NC(=O)[C@H](Cc2ccc3ccccc3c2)NC(=O)[C@H](Cc2ccc(OCCN)cc2)NC(=O)[C@@H]2CCNC(=O)CC[C@H](NC(=O)[C@H](CO)NC(=O)Cc3ccc(cc3)CNC(=O)CC[C@@H](C(=O)N[C@@H](CCN)C(N)=O)NC1=O)C(=O)N[C@@H](Cc1c[nH]c3ccccc13)C(=O)N[C@@H](CCC(N)=O)C(=O)N2 [Ref 125, reference compound] : 9.22
CC(C)C[C@]1(C)NC(=O)[C@H](Cc2ccc3ccccc3c2)NC(=O)[C@H](Cc2ccc(OCCN)cc2)NC(=O)[C@@H]2CSCC(=O)CSC[C@H](NC(=O)[C@H](CO)NC(=O)c3cccc(c3)CNC(=O)CC[C@@H](C(=O)N[C@@H](CCCNC(=N)N)C(=O)N[C@@H](Cc3cccnc3)C(N)=O)NC1=O)C(=O)N[C@@H](Cc1c[nH]c3ccccc13)C(=O)N[C@@H](CCC(N)=O)C(=O)N2 [Ref 78, reference compound] ([3Amb]SCWQC[AEF][2Nal][αMeL]ER[3Pal]-NH2; linker 3-6 via CH2COCH2; lactam N-10) : 10.69
CC(C)C[C@@H]1NC(=O)[C@H](Cc2ccc3ccccc3c2)NC(=O)[C@H](Cc2c[nH]c3ccccc23)NC(=O)[C@@H]2CSCC(=O)CSC[C@H](NC(=O)[C@H](CO)NC(=O)c3cccc(c3)CNC(=O)CC[C@@H](C(=O)N[C@@H](CCCNC(=N)N)C(N)=O)NC1=O)C(=O)N[C@@H](Cc1c[nH]c3ccccc13)C(=O)N[C@@H](CCC(N)=O)C(=O)N2 [Ref 37, reference compound] ([3Amb]SCWQCW[2Nal]LER-NH2; linker 3-6 via CH2COCH2; lactam N-10) : 8.01

###

# tested-system: IL-23 mediated signalling (Homo sapiens, UniProt Q5VWK5)
# method-description: Functional inhibition of IL-23 mediated STAT3 signalling (phospho-STAT3 MSD) in DB cells
# Type: cell-based
# run-parameters: SAR tables 2-1 to 2-7; DB cells, hIL-23 at EC80; read-out: IC50 (pSTAT3)
Where a SMILES comes first, the peptide text is derived from it. Bridges are numbered along the chain shown (N, C = ends). [ ]: non-standard residue; d: D form. 2Nal = N[C@@H](Cc1ccc2ccccc2c1)C(=O)O; AEF = NCCOc1ccc(C[C@H](N)C(=O)O)cc1; 3Pal = N[C@@H](Cc1cccnc1)C(=O)O; αMeL = CC(C)C[C@](C)(N)C(=O)O; Dab = NCC[C@H](N)C(=O)O
A collection of molecules and their measured IC50
observed-property: IC50 (nM)

CNC(=O)[C@H](Cc1cccnc1)NC(=O)[C@H](CCN)NC(=O)[C@@H]1CCC(=O)NCCCC[C@@H]2NC(=O)CC[C@H](NC(=O)[C@H](CCC(N)=O)NC(=O)[C@H](Cc3c[nH]c4ccccc34)NC(=O)CCNC2=O)C(=O)N[C@@H](Cc2ccc(OCCN)cc2)C(=O)N[C@@H](Cc2ccc3ccccc3c2)C(=O)N[C@@](C)(CC(C)C)C(=O)N1 : 0.058
CNC(=O)[C@H](Cc1cccnc1)NC(=O)[C@H](CCN)NC(=O)[C@@H]1CCC(=O)NCCCC[C@@H]2NC(=O)CC[C@H](NC(=O)[C@H](CCC(N)=O)NC(=O)[C@H](Cc3c[nH]c4ccccc34)NC(=O)CNC2=O)C(=O)N[C@@H](Cc2ccc(OCCN)cc2)C(=O)N[C@@H](Cc2ccc3ccccc3c2)C(=O)N[C@@](C)(CC(C)C)C(=O)N1 : 15
CC(C)C[C@]1(C)NC(=O)[C@H](Cc2ccc3ccccc3c2)NC(=O)[C@H](Cc2ccc(OCCN)cc2)NC(=O)[C@@H]2CCC(=O)N[C@@H](CCCCNC(=O)CC[C@@H](C(=O)N[C@@H](CCN)C(=O)N[C@@H](Cc3cccnc3)C(N)=O)NC1=O)C(=O)N[C@@H]([C@@H](C)O)C(=O)N[C@@H](C(C)C)C(=O)N[C@@H](Cc1c[nH]c3ccccc13)C(=O)N[C@@H](CCC(N)=O)C(=O)N2 [Compound 2] (KTVWQE[AEF][2Nal][αMeL]E[Dab][3Pal]-NH2; lactam 1-10, N-6) : 0.11
CNC(=O)[C@H](Cc1cccnc1)NC(=O)[C@H](CCN)NC(=O)[C@@H]1CCC(=O)NCCCC[C@H]2CC(=O)NCC(=O)N[C@@H](Cc3c[nH]c4ccccc34)C(=O)N[C@@H](CCC(N)=O)C(=O)N[C@@H](CCC(=O)N2)C(=O)N[C@@H](Cc2ccc(OCCN)cc2)C(=O)N[C@@H](Cc2ccc3ccccc3c2)C(=O)N[C@@](C)(CC(C)C)C(=O)N1 : 0.014

###

# tested-system: human IL-23R (Homo sapiens)
# Sequence (Q5VWK5 22-629): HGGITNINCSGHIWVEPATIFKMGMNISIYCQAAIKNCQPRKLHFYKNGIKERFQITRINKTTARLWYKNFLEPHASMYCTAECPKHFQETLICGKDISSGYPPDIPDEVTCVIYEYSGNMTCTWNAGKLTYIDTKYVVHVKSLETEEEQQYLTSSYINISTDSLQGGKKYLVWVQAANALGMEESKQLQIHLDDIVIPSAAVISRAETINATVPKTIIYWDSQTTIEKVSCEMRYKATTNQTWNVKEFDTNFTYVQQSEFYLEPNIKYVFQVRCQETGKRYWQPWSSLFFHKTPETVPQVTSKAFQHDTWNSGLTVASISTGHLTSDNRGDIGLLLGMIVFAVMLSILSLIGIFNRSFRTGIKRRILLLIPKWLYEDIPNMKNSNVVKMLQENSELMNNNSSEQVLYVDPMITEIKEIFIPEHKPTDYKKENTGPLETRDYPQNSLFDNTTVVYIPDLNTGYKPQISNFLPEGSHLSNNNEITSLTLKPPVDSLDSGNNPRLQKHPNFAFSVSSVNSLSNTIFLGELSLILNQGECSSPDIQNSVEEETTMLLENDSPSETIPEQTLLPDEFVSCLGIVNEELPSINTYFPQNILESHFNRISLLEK
pIC50: −log10 of the molar value. *1 amine or outer side, *2 acyl side, *3 side chain or, on linkers, in order; H or OH if unused. Where a SMILES comes first, the peptide text is derived from it. Bridges are numbered along the chain shown (N, C = ends). [ ]: non-standard residue; d: D form. X8 = O=C(CC[C@@H](N[*:2])C(=O)[*:3])[*:1]; 2Nal = N[C@@H](Cc1ccc2ccccc2c1)C(=O)O; AEF = NCCOc1ccc(C[C@H](N)C(=O)O)cc1; X1 = O=C(Cc1ccc(CN[*:1])cc1)[*:2]; 3Pal = N[C@@H](Cc1cccnc1)C(=O)O; αMeL = CC(C)C[C@](C)(N)C(=O)O; CH2COCH2 = O=C(C[*:1])C[*:2]; Dab = NCC[C@H](N)C(=O)O
observed-property: pIC50

CNC(=O)[C@H](Cc1cccnc1)NC(=O)[C@H](CCN)NC(=O)[C@@H]1CCC(=O)NCCCC[C@@H]2NC(=O)CC[C@H](NC(=O)[C@H](CCC(N)=O)NC(=O)[C@H](Cc3c[nH]c4ccccc34)NC2=O)C(=O)N[C@@H](Cc2ccc(OCCN)cc2)C(=O)N[C@@H](Cc2ccc3ccccc3c2)C(=O)N[C@@](C)(CC(C)C)C(=O)N1 [Compound 43] (KWQE[AEF][2Nal][αMeL]E[Dab][3Pal]-NHMe; lactam 1-8, N-4) : 7.10
CNC(=O)[C@H](Cc1cccnc1)NC(=O)[C@H](CCN)NC(=O)[C@@H]1CCNC(=O)[C@H]2CCC(=O)N[C@@H](Cc3c[nH]c4ccccc34)C(=O)N[C@@H](CCC(N)=O)C(=O)N[C@@H](CCC(=O)N2)C(=O)N[C@@H](Cc2ccc(OCCN)cc2)C(=O)N[C@@H](Cc2ccc3ccccc3c2)C(=O)N[C@@](C)(CC(C)C)C(=O)N1 [Compound 109] (WQE[AEF][2Nal][αMeL][Dab][Dab][3Pal]-NHMe; linker N-3-7 via X8) : 7.59
CC(C)C[C@]1(C)NC(=O)[C@H](Cc2ccc3ccccc3c2)NC(=O)[C@H](Cc2ccc(OCCN)cc2)NC(=O)[C@@H]2CSCC(=O)CSC[C@H](NC(=O)[C@H](CO)NC(=O)Cc3ccc(cc3)CNC(=O)CC[C@@H](C(=O)N[C@@H](CCN)C(N)=O)NC1=O)C(=O)N[C@@H](Cc1c[nH]c3ccccc13)C(=O)N[C@@H](CCC(N)=O)C(=O)N2 [Ref 82, reference compound] ([X1]SCWQC[AEF][2Nal][αMeL]E[Dab]-NH2; linker 3-6 via CH2COCH2; lactam N-10) : 10.09
